- procedureSummary: chemical genetic growth profiling, strain panel (AID 1159580);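 further: tested at 20 µM; growth read once vehicle control cultures reached saturation at 30 °C; 1 = growth at the plate median or of vehicle wells; lower values mean less growth of the strain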
- testContext: S. cerevisiae deletion strains, growth OD, locus YLL001W, strain dnm1, active compounds read low
Among all 5,500 compounds or so, about 2,000 (36%) were called active. Inconclusive results (about 18%) are left out. The list shows a part of the results.
In this section, each of the molecules is paired with its reported normalized growth.
Returns: the value as a bare number; no unit string appended.

>  <compound>
COc1ccc2[nH]cc(CCNC(C)=O)c2c1

>  <normalized growth>
0.971

$$$$
>  <compound>
Cc1cccc(N(C)C(=S)Oc2ccc3ccccc3c2)c1

>  <normalized growth>
0.994

$$$$
>  <compound>
Fc1ccc(C(c2ccc(F)cc2)N2CCN(C/C=C/c3ccccc3)CC2)cc1

>  <normalized growth>
0.293

$$$$
>  <compound>
Cn1c(=O)[nH]c(=O)c2[nH]cnc21

>  <normalized growth>
1.01

$$$$
>  <compound>
O=C(/C=C/C(=O)Oc1ccccc1C(=O)O)Oc1ccccc1C(=O)O

>  <normalized growth>
0.999

$$$$

Would you kindly share the measured normalized growth for "CN1CCN(C(c2ccccc2)c2ccccc2)CC1" ?
0.996

* * *

- procedureSummary: chemical genetic growth profiling, strain panel (AID 1159580)
- testContext: S. cerevisiae deletion strains, growth OD, locus YLR262C, strain YPT6 (second series), active compounds read low
About 2,000 (36%) of roughly 5,500 compounds were called active. Not shown: some 18% with an inconclusive outcome. The list shows a part of the results.
In this section, each of the molecules is paired with its reported normalized growth.
Returns: the value as a bare number; no unit string appended.

>  <molecule>
Cc1cc(C)nc(NS(=O)(=O)c2ccc(N)cc2)n1

>  <normalized growth>
0.972

$$$$
>  <molecule>
CC1=C2CCC3C(CC[C@]4(C)C(=O)CCC34)[C@@]2(C)CCC1=O (stereo partly drawn)

>  <normalized growth>
0.655

$$$$

Here is another molecule to look at.
Would you kindly share the measured normalized growth for COc1cc(OC)c2c(c1Cl)OC1(C2=O)C(O)=CC(=O)CC1C (stereo not drawn) ?
1.02

* * *

- procedureSummary: chemical genetic growth profiling, strain panel (AID 1159580)
- testContext: S. cerevisiae deletion strains, growth OD, locus YMR231W, strain pep5, active compounds read low
About 2,000 (36%) of roughly 5,500 compounds were called active. About 18% were inconclusive and are not listed. The list shows a part of the results.
In this section, each of the compounds is paired with its reported normalized growth.
Returns: the value as a bare number; no unit string appended.

>  <compound>
O=c1cc(-c2ccc(O)cc2)oc2cc(O[C@@H]3O[C@H](CO)[C@@H](O)[C@H](O)[C@H]3O[C@@H]3OC[C@](O)(CO)[C@H]3O)cc(O)c12

>  <normalized growth>
0.997

$$$$
>  <compound>
CN1CCN(CCCN2c3ccccc3Sc3ccc(Cl)cc32)CC1

>  <normalized growth>
0.0744

$$$$
>  <compound>
COC(=O)C1=CO[C@@H](O[C@@H]2O[C@H](CO)[C@@H](O)[C@H](O)[C@H]2O)[C@@H]2[C@@H](C)[C@@H](O)C[C@H]12

>  <normalized growth>
1

$$$$
>  <compound>
C[C@]12C=CC(=O)C=C1CCC1C2CC[C@]2(C)C(=O)CCC12 (some centres not stated)

>  <normalized growth>
0.986

$$$$
>  <compound>
O=C(O)c1cc2cc(Cl)ccc2[nH]1

>  <normalized growth>
0.989

$$$$

Would you kindly share the measured normalized growth for "O=c1ccc2cc(O[C@@H]3O[C@H](CO)[C@@H](O)[C@H](O)[C@H]3O)c(O)cc2o1" ?
0.971

Would you kindly share the measured normalized growth for "Nc1ncnc2c1ncn2[C@@H]1O[C@H](CO)[C@@H](O)[C@@H]1O" ?
1.01

Would you kindly share the measured normalized growth for "CC(=O)c1ccc2c(c1)N(CCCN(C)C)c1ccccc1S2" ?
0.996

Would you kindly share the measured normalized growth for "Cc1cc(C)nc(NS(=O)(=O)c2ccc(N)cc2)n1" ?
1.02

Would you kindly share the measured normalized growth for "CC1(C)C[C@@H]2C(=O)CC[C@H]3O[C@]3(C)CC[C@H]21" ?
1.02

Would you kindly share the measured normalized growth for C[C@]12C=CC(=O)C=C1CCC1C2C(=O)C[C@@]2(C)C1CC[C@]2(O)C(=O)CO (some centres not stated) ?
1.02

Would you kindly share the measured normalized growth for C=C1CC2C(CCC3(C)C(=O)CCC23)C2(C)C=CC(=O)C=C12 (configuration not stated) ?
0.946

Would you kindly share the measured normalized growth for "COc1ccc2ccc(=O)oc2c1CC=C(C)C" ?
0.935

Would you kindly share the measured normalized growth for "COc1cc(O)c(C(C)=O)c(OC)c1" ?
1.02

Would you kindly share the measured normalized growth for "O=c1n(CCCN2CCN(c3cccc(Cl)c3)CC2)nc2ccccn12" ?
0.989

* * *

- procedureSummary: chemical genetic growth profiling, strain panel (AID 1159580)
- testContext: S. cerevisiae deletion strains, growth OD, locus YIL066C, strain RNR3
In all, about 5,500 compounds went through this assay and about 2,000 (36%) were called active. Roughly 18% stayed inconclusive and do not appear here. No stated cut-off is given here; in the data, active means normalized growth mostly below about 0.91 (no sharp cut-off); inconclusive means no clear call, values can overlap the other calls; inactive means mostly above about 0.92. This is one part of the list.
Just give me one of these, please: active, inactive

Example cases with answers are listed next.
>  <compound>
CCCCCN=C(N)N/N=C\c1c[nH]c2ccc(OC)cc12

>  <groupLabel>
inactive

$$$$
>  <compound>
CCCc1nc(C(C)(C)O)c(C(=O)OCc2oc(=O)oc2C)n1Cc1ccc(-c2ccccc2-c2nn[nH]n2)cc1

>  <groupLabel>
inactive

$$$$

Tell me the assay call for "CC1(C)C=Cc2c(cc3occ(-c4ccc5c(c4)OCO5)c(=O)c3c2O)O1" please.
inactive

Tell me the assay call for "CC(C)=CCc1c(O)cc2occ(-c3ccc4c(c3)OCO4)c(=O)c2c1O" please.
inactive

Tell me the assay call for "O=c1c(-c2ccc3c(c2)OCO3)coc2cc(O)ccc12" please.
inactive

* * *

In this section, each of the molecules is paired with its reported normalized growth.
- procedureSummary: chemical genetic growth profiling, strain panel (AID 1159580);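 further: tested at 20 µM; growth read once vehicle control cultures reached saturation at 30 °C; 1 = growth at the plate median or of vehicle wells; lower values mean less growth of the strain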
- testContext: S. cerevisiae deletion strains, growth OD, locus YOR106W, strain vam3, active compounds read low
About 2,000 (36%) of roughly 5,500 compounds were called active. About 18% were inconclusive and are not listed. The list shows a part of the results.

>  <molecule>
C=C1CC2C(CCC3(C)C(=O)CCC23)C2(C)C=CC(=O)C=C12 (centres undefined)

>  <normalized growth>
0.969 (inactive)

$$$$
>  <molecule>
COC(=O)C1=CO[C@@H](O[C@@H]2O[C@H](CO)[C@@H](O)[C@H](O)[C@H]2O)[C@@H]2[C@@H](C)[C@@H](O)C[C@H]12

>  <normalized growth>
0.989 (inactive)

$$$$
>  <molecule>
COc1cc2ccc(=O)oc2c(OC)c1OC

>  <normalized growth>
0.969 (inactive)

$$$$

Would you kindly share the measured normalized growth for CCOC(=O)C1=C(C)NC(C)=C(C(=O)OC)C1c1cccc([N+](=O)[O-])c1 (centres undefined) ?
1.01 (inactive)

Would you kindly share the measured normalized growth for "CC(=O)N[C@@H](CC(=O)O)C(=O)O" ?
1.01 (inactive)

Would you kindly share the measured normalized growth for "Cc1cc(C)nc(NS(=O)(=O)c2ccc(N)cc2)n1" ?
1.02 (inactive)

* * *

- procedureSummary: chemical genetic growth profiling, strain panel (AID 1159580);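 further: tested at 20 µM; growth read once vehicle control cultures reached saturation at 30 °C; 1 = growth at the plate median or of vehicle wells; lower values mean less growth of the strain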
- testContext: S. cerevisiae deletion strains, growth OD, locus YMR263W, strain SAP30
The whole screen tested about 5,500 compounds, of which about 2,000 (36%) were called active. Another 18% or so got no clear call; they are omitted. Cut-off read from the data, not from the text of the source: active = normalized growth mostly below about 0.91 (no sharp cut-off); inconclusive = no clear call, values can overlap the other calls; inactive = mostly above about 0.92. Some of the results follow.
Just give me one of these, please: true (1) for active, false (0) for inactive

Example cases with answers are listed next.
>  <molecule>
S=C(NCc1ccco1)Nc1ccc(Oc2ccc(Cl)cc2)cc1

>  <groupLabel>
true (1)

$$$$
>  <molecule>
CC(=O)[C@H]1CC[C@H]2[C@@H]3CC[C@H]4C[C@H](O)CC[C@]4(C)[C@H]3C(=O)C[C@]12C

>  <groupLabel>
false (0)

$$$$
>  <molecule>
CC(NC(=S)Nc1ccc(Oc2ccc(Cl)cc2)cc1)c1ccccc1 (stereo not given)

>  <groupLabel>
false (0)

$$$$

Tell me the assay call for "CCOC(=N)c1ccc(F)c(Cl)c1" please.
false (0)

Tell me the assay call for "COc1c2c(cc3occ(-c4ccc5c(c4)OCO5)c(=O)c13)OC(C)(C)C=C2" please.
false (0)

* * *

- procedureSummary: chemical genetic growth profiling, strain panel (AID 1159580);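 further: tested at 20 µM; growth read once vehicle control cultures reached saturation at 30 °C; 1 = growth at the plate median or of vehicle wells; lower values mean less growth of the strain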
- testContext: S. cerevisiae deletion strains, growth OD, locus YER155C, strain BEM2 (second series)
The whole screen tested about 5,500 compounds, of which about 2,000 (36%) were called active. About 18% were inconclusive and are not listed. Rule as the data show it: active = normalized growth mostly below about 0.91 (no sharp cut-off); inconclusive = no clear call, values can overlap the other calls; inactive = mostly above about 0.92. The list shows a part of the results.
Just give me one of these, please: Yes (active), No (inactive)

>  <compound>
COc1cc2c(cc1-c1coc3c4c(c(OC)cc3c1=O)OC(C)(C)C=C4)OCO2

>  <groupLabel>
No

$$$$
>  <compound>
CC(C)=CCc1c(O)cc2occ(-c3ccc4c(c3)OCO4)c(=O)c2c1O

>  <groupLabel>
No

$$$$
>  <compound>
COc1ccc2c(=O)c(-c3cc4c(cc3OC)OCO4)coc2c1

>  <groupLabel>
No

$$$$
>  <compound>
C[C@]12C=CC(=O)C=C1CCC1C2C(=O)C[C@@]2(C)C1CC[C@]2(O)C(=O)CO (stereo not given in full)

>  <groupLabel>
No

$$$$
>  <compound>
CC1(C)C=Cc2c(cc3occ(-c4ccc5c(c4)OCO5)c(=O)c3c2O)O1

>  <groupLabel>
No

$$$$

Tell me the assay call for C[C@]12CCC3C(CC[C@H]4CC(=O)CC[C@]34C)C1CCC2=O (stereo not given in full) please.
Yes

Tell me the assay call for "CCCc1nc(C(C)(C)O)c(C(=O)OCc2oc(=O)oc2C)n1Cc1ccc(-c2ccccc2-c2nn[nH]n2)cc1" please.
No

Tell me the assay call for "COc1cc(OC)c2c(=O)c(-c3ccc4c(c3)OCO4)coc2c1" please.
No

Tell me the assay call for "CC1(C)S[C@@H]2[C@H](NC(=O)COc3ccccc3)C(=O)N2[C@H]1C(=O)O" please.
No

Tell me the assay call for CC(C(=O)O)c1ccc(N2Cc3ccccc3C2=O)cc1 (stereo not given) please.
No

Values from PubChem BioAssay AID1159580
